Target: Muscarinic acetylcholine receptor M5 (Homo sapiens); further: in other assays of this panel Not Active means under 50% inhibition at 10 µM
Sequence (P08912 whole entry): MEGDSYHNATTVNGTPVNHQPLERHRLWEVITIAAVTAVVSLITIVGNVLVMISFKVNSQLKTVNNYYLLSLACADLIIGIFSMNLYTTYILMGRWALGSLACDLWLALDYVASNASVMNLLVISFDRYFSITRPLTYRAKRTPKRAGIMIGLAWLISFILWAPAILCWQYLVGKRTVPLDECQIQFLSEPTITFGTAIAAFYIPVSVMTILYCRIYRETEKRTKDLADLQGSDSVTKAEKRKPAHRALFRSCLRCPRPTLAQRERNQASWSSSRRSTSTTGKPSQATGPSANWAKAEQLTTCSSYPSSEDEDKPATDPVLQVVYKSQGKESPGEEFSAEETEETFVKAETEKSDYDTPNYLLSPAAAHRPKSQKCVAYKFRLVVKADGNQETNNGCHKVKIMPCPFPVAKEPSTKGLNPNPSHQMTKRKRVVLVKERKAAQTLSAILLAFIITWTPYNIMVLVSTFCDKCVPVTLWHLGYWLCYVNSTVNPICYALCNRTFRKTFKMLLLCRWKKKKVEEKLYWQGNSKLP
Type: cell membranes, CHO-K1, Membrane
Settings: cho-k1
MEASURED ENDPOINT: IC50

O=NN(CCCl)C(=O)NCCCl [CARMUSTINE]    Not Active
COc1cccc2c1C(=O)c1c(O)c3c(c(O)c1C2=O)C[C@@](O)(C(=O)CO)C[C@@H]3O[C@H]1C[C@H](N)[C@@H](O)[C@H](C)O1 [EPIRUBICIN]    Not Active
CO[C@H]1/C=C/O[C@@]2(C)Oc3c(C)c(O)c4c(c3C2=O)C2=NC3(CCN(CC(C)C)CC3)NC2=C(NC(=O)/C(C)=C\C=C\[C@H](C)[C@H](O)[C@@H](C)[C@@H](O)[C@@H](C)[C@H](OC(C)=O)[C@@H]1C)C4=O [RIFABUTIN]    Not Active

====

Molecular target: Melanocortin receptor 4 (Homo sapiens, UniProt P32245); further: in other assays of this panel Not Active means under 50% inhibition at 10 µM
Sequence (P32245 whole entry): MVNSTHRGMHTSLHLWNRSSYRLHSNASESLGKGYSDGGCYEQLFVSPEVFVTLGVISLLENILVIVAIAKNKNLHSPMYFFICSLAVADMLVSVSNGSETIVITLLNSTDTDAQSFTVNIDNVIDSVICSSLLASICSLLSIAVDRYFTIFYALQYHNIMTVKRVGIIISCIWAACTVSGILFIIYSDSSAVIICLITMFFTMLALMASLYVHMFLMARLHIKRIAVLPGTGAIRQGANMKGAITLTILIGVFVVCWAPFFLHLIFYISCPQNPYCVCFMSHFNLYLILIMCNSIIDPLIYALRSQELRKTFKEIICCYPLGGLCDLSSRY
Format: cell membranes, Membrane
Conditions: hek293
Where a SMILES comes first, the peptide text is derived from it. Bridges are numbered along the chain shown (N, C = ends). [ ]: non-standard residue; d: D form. The star is where a group is joined. Threoninol(2S,3R) = C[C@@H](O)[C@H](CO)N*
MEASURED ENDPOINT: IC50

Example entries begin here.
C[N+](C)(C)CCO.[Cl-] [CHOLINE CHLORIDE]    Not Active
CCN[C@@H]1C[C@H](N)[C@@H](O[C@H]2OC(CN)=CC[C@H]2N)[C@H](O)[C@H]1O[C@H]1OC[C@](C)(O)[C@H](NC)[C@H]1O [NETILMICIN]    Not Active
C=CCN1CC[C@]23c4c5ccc(O)c4O[C@H]2C(=O)CC[C@@]3(O)[C@H]1C5 [NALOXONE]    Not Active
CC/C(=C(/CC)c1ccc(O)cc1)c1ccc(O)cc1 [DIETHYLSTILBESTROL]    Not Active

Query (compound): CN(C)/N=N/c1[nH]cnc1C(N)=O [DACARBAZINE] ; field requested: IC50
Not Active

Query (compound): Cc1cc2cc3c(C)cc(=O)oc3c(C)c2o1 [TRIOXSALEN] ; field requested: IC50
Not Active

Query (compound): NC(=O)c1cnccn1 [PYRAZINAMIDE] ; field requested: IC50
Not Active

Query (compound): CC(=O)N[C@@H]1[C@H](Oc2c3cc4cc2Oc2ccc(cc2Cl)[C@@H](O[C@@H]2O[C@@H](CO)[C@@H](O)[C@H](O)[C@@H]2NC(C)=O)[C@@H]2NC(=O)[C@H](NC(=O)[C@@H]4NC(=O)[C@H]4NC(=O)[C@@H](Cc5ccc(c(Cl)c5)O3)NC(=O)[C@H](N)c3ccc(O)c(c3)Oc3cc(O)cc4c3)c3ccc(O)c(c3)-c3c(O[C@H]4O[C@H](CO)[C@@H](O)[C@@H](O)[C@@H]4O)cc(O)cc3[C@@H](C(=O)O)NC2=O)O[C@@H](CO)[C@@H](O)[C@@H]1O ; field requested: IC50
Not Active

Query (compound): CN1CCC(=C2c3ccccc3C=Cc3ccccc32)CC1 [CYPROHEPTADINE] ; field requested: IC50
Not Active

Query (compound): [Cl-].[Cl-].[Zn+2] [ZINC CHLORIDE] ; field requested: IC50
Not Active

Query (compound): C[C@@H](O)[C@H](CO)NC(=O)[C@@H]1CSSC[C@H](NC(=O)[C@H](N)Cc2ccccc2)C(=O)N[C@@H](Cc2ccccc2)C(=O)N[C@H](Cc2c[nH]c3ccccc23)C(=O)N[C@@H](CCCCN)C(=O)N[C@@H]([C@@H](C)O)C(=O)N1 (H-[dF]CF[dW]KTC-{Threoninol(2S,3R)}; disulfide 2-7) ; field requested: IC50
Not Active

Query (compound): COC(=O)C1=C(C)NC(C)=C(C(=O)OCC(C)C)C1c1ccccc1[N+](=O)[O-] (stereo unspecified) [NISOLDIPINE] ; field requested: IC50
Not Active

Query (compound): C/C=C/C[C@@H](C)[C@@H](O)[C@H]1C(=O)N[C@@H](CC)C(=O)N(C)CC(=O)N(C)[C@@H](CC(C)C)C(=O)N[C@@H](C(C)C)C(=O)N(C)[C@@H](CC(C)C)C(=O)N[C@@H](C)C(=O)N[C@H](C)C(=O)N(C)[C@@H](CC(C)C)C(=O)N(C)[C@@H](CC(C)C)C(=O)N(C)[C@@H](C(C)C)C(=O)N1C [CYCLOSPORINE] ; field requested: IC50
Not Active

Query (compound): C[C@@H]1C[C@@H]([C@H](O)CC2CC(=O)NC(=O)C2)C(=O)[C@@H](C)C1 [CYCLOHEXIMIDE] ; field requested: IC50
Not Active

Query (compound): O=NN(CCCl)C(=O)NCCCl [CARMUSTINE] ; field requested: IC50
Not Active

Query (compound): C[C@H]1O[C@@H](O[C@H]2[C@@H](O)C[C@H](O[C@H]3[C@@H](O)C[C@H](O[C@H]4CC[C@@]5(C)[C@H](CC[C@@H]6[C@@H]5CC[C@]5(C)[C@@H](C7=CC(=O)OC7)CC[C@]65O)C4)O[C@@H]3C)O[C@@H]2C)C[C@H](O)[C@@H]1O [DIGITOXIN] ; field requested: IC50
Not Active

Query (compound): CC1(C)O[C@@H]2C[C@H]3[C@@H]4C[C@H](F)C5=CC(=O)C=C[C@]5(C)[C@@]4(F)[C@@H](O)C[C@]3(C)[C@]2(C(=O)CO)O1 [FLUOCINOLONE ACETONIDE] ; field requested: IC50
Not Active

Query (compound): N=C(N)NC(=O)c1nc(Cl)c(N)nc1N [AMILORIDE] ; field requested: IC50
Not Active

Query (compound): COc1ccc2cc([C@H](C)C(=O)O)ccc2c1 [NAPROXEN] ; field requested: IC50
Not Active

Query (compound): Nc1c(CC(=O)O)cccc1C(=O)c1ccc(Br)cc1 [BROMFENAC] ; field requested: IC50
Not Active

Query (compound): CN1C(C(=O)Nc2ccccn2)=C(O)c2sccc2S1(=O)=O [TENOXICAM] ; field requested: IC50
Not Active

Query (compound): O=C1CCC(N2C(=O)c3ccccc3C2=O)C(=O)N1 (stereo unspecified) [THALIDOMIDE] ; field requested: IC50
Not Active

Query (compound): CC(=O)Nc1c(I)c(NC(C)=O)c(I)c(C(=O)O)c1I [DIATRIZOIC ACID] ; field requested: IC50
Not Active

Query (compound): CC(C)(Oc1ccc(C2CCCc3ccccc32)cc1)C(=O)O (stereo unspecified) [NAFENOPIN] ; field requested: IC50
Not Active

Query (compound): CC1(C)O[C@@H]2C[C@H]3[C@@H]4C[C@H](F)C5=CC(=O)CC[C@]5(C)[C@H]4[C@@H](O)C[C@]3(C)[C@]2(C(=O)CO)O1 [FLURANDRENOLIDE] ; field requested: IC50
Not Active

Query (compound): CN(C)c1ccc(C(=C2C=CC(=[N+](C)C)C=C2)c2ccc(N(C)C)cc2)cc1.[Cl-] [GENTIAN VIOLET] ; field requested: IC50
Not Active

====

Molecular target: Thromboxane-A synthase (Homo sapiens, UniProt P24557);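 further: enzyme inhibition assay with PGH2 supplied as substrate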; further: in other assays of this panel Not Active means under 50% inhibition at 10 µM
Sequence (P24557 whole entry): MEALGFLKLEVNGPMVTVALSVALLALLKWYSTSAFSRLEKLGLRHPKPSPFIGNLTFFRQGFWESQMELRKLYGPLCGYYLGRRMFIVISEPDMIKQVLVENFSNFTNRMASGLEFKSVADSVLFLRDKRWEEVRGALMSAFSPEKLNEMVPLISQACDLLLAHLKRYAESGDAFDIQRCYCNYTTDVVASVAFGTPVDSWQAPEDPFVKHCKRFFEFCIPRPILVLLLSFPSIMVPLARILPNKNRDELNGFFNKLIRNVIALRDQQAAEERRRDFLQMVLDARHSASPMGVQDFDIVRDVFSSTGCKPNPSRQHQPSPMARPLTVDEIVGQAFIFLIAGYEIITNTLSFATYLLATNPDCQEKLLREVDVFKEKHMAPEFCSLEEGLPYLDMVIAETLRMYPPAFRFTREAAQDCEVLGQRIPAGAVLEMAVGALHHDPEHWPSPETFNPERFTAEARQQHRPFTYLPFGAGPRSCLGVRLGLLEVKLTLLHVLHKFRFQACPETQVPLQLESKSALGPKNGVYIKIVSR
Assay: biochemical
Format: tissue-based, Platelet
Details: platelet
MEASURED ENDPOINT: IC50

Example entries begin here.
[H]/N=C(/N)N[C@H]1[C@H](O)[C@@H](O)[C@H](O[C@@H]2O[C@@H](C)[C@](O)(C=O)[C@H]2O[C@@H]2O[C@@H](CO)[C@H](O)[C@@H](O)[C@@H]2NC)[C@@H](N/C(N)=N\[H])[C@@H]1O [STREPTOMYCIN]    Not Active
CCn1cc(C(=O)O)c(=O)c2cc(F)c(N3CCN(C)CC3)cc21 [PEFLOXACIN]    Not Active
CCCN(CCC)C(=O)C(CCC(=O)O)NC(=O)c1ccccc1 (stereo not drawn) [PROGLUMIDE]    Not Active
Cc1cc(=O)n(-c2ccccc2)n1C [ANTIPYRINE]    Not Active
COc1ccc2c(c1)[C@]13CCCC[C@@H]1[C@H](C2)N(C)CC3 [DEXTROMETHORPHAN]    Not Active
CN1CCC(=C2c3ccccc3C=Cc3ccccc32)CC1 [CYPROHEPTADINE]    Not Active

Kindly state the measured IC50 obtained for COc1ccc2c(c1)c(CC(=O)O)c(C)n2C(=O)c1ccc(Cl)cc1 [INDOMETHACIN] with Thromboxane-A synthase (Homo sapiens, UniProt P24557).
Not Active

Kindly state the measured IC50 obtained for CN1C(C(=O)Nc2ccccn2)=C(O)c2sccc2S1(=O)=O [TENOXICAM] with Thromboxane-A synthase (Homo sapiens, UniProt P24557).
Not Active
